Measured normalized RNA/DNA level without ligand (log10), listed per entry for reference.
B1: library; a variant is named by its letters at N, in order (parent)
chain: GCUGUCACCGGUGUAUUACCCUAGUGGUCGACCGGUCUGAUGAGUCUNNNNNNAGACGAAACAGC

# Variants of: B1
# Procedure details: normalized RNA/DNA level without ligand (relative to sTRSVctl = 100) (log10 (% of sTRSVctl)); ligand: hypoxanthine (xanthine aptamer); higher = less ribozyme self-cleavage, higher mRNA level
# Condition parameters: HEK293T, reporter: mCherry (pCS4076), ligand present: no
Parameter: normalized RNA/DNA level without ligand (log10)

1. AGCUCG; 1.63
2. GUCCGC; 1.85
3. AACAUU; 1.87
4. GCCAAA; 1.81
5. GCCGGG; 1.87
6. UCAUAC; 1.89
7. CGCUCU; 1.93
8. AGACAU; 1.76
9. ACGGAC; 1.7
10. GUAGCC; 1.83
11. UUAUCU; 1.86
12. CCUGUG; 1.86
13. AAUGAG; 1.3
14. AUGGAU; 1.66
15. CCGAUU; 1.78
16. UAAAUG; 1.73
17. CUCAAG; 1.74
18. CGGCAC; 1.73
19. AUCUGG; 1.43
20. ACACAA; 1.78
21. CACGUA; 1.78
22. GGGGAC; 1.61
